target: Stearoyl-CoA desaturase (Homo sapiens); assay: Inhibition of Scd1 in human HEK293A cell microsomes assessed as conversion of [14C]stearate to [14C]oleate pretreated for 10 mins measured after 60 mins; parameters: species or system HEK293-A, Microsome
Sequence (O00767 whole entry): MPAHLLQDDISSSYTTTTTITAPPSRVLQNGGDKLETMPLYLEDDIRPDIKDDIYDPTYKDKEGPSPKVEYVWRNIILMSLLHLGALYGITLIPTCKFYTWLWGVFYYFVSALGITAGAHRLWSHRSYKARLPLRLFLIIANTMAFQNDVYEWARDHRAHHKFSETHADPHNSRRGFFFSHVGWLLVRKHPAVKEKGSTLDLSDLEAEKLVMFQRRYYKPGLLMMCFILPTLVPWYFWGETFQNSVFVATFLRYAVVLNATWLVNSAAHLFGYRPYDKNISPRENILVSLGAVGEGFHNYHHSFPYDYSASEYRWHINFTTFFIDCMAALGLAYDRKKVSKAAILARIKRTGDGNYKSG
# pIC50 listing for each entry below
When answering, recall that pIC50 equals minus log10 of the concentration in mol/L, and write that number alone.

Use the examples below as a reference point.
- Molecule: "Cc1ccccc1C(=O)C1CCN(c2ccc(C(=O)NCC(O)c3ccsc3)nn2)CC1 (stereo not given)"
  Measurement Name: "pIC50"
  Data Value: 8.15
- Molecule: "COc1ccccc1C(=O)C1CCN(c2ccc(C(=O)NCC(O)c3ccccc3)nn2)CC1 (stereo not given)"
  Measurement Name: "pIC50"
  Data Value: 6.51
- Molecule: "Cc1ccccc1C(=O)C1CCN(c2ccc(C(=O)NCC(O)c3cccs3)nn2)CC1 (stereo not given)"
  Measurement Name: "pIC50"
  Data Value: 7.36
- Molecule: "O=C(NCCc1ccccc1)c1ccc(N2CCN(C(=O)c3ccccc3C(F)(F)F)CC2)cc1"
  Measurement Name: "pIC50"
  Data Value: 6.09
- Molecule: "Cc1ccccc1C(=O)C1CCN(c2ccc(C(=O)NCC(O)c3cccc(F)c3)nn2)CC1 (stereo not given)"
  Measurement Name: "pIC50"
  Data Value: 8.22
- Molecule: "O=C(NCC(O)c1ccccc1)c1ccc(N2CCC(C(=O)c3ccccc3)CC2)nn1 (stereo not given)"
  Measurement Name: "pIC50"
  Data Value: 6.53
- Molecule: "O=C(NCC(O)c1ccccc1)c1ccc(N2CCC(C(=O)c3ccccc3C(F)(F)F)CC2)nn1 (stereo not given)"
  Measurement Name: "pIC50"
  Data Value: 8.15
- Molecule: "Cc1ccccc1C(=O)C1CCN(c2ccc(C(=O)NCC(O)c3ccncc3)nn2)CC1 (stereo not given)"
  Measurement Name: "pIC50"
  Data Value: 6.73
- Molecule: "O=C(NCCc1ccccc1)c1ccc(N2CCN(C(=O)c3ccccc3C(F)(F)F)CC2)nc1"
  Measurement Name: "pIC50"
  Data Value: 7.00

Next, consider the following molecule.
(Q) Fill in the blank: the reported pIC50 of O=C(NCC(O)c1ccccc1)c1ccc(N2CCC(C(=O)c3ccccc3OC(F)(F)F)CC2)nn1 (stereo not given) is ____.
(A) 8.00
